The reported measurements were obtained from the supplement of paper PMC10567573.

B1: RIPK4 (parent)
chain: VIDLFDEQGLSALHLAAQGRHAQT

Variants of: B1
test: protein stability index of a GFP-peptide fusion (GPS, HEK-293T) (PSI 1-6); higher = more stable;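 further: lentivirally expressed fusions sorted by FACS into six bins by GFP to DsRed ratio, PSI derived from sequencing read proportions per bin multiplied by bin number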
experimental-setup: c terminus: a fixed tail appended
param class (str): category from protein stability index; see ranges low value (below 2), medium value (2 to below 3), high value (3 or more)

Answered cases to consult:
1) VIELFDEQGLSALHLAAQGRHAQT = medium value
2) VIDLFDEVGLSALHLAAQGRHAQT = medium value
3) VIDLFDEQGLSALHLATQGRHAQT = medium value
4) VIDLFDEQGLSALHLAANGRHAQT = medium value

Input: Which bin, given its protein stability index, does `VIDLFDEQGLSALHLAAQGMHAQT` occupy?
Output: medium value

Input: Which bin, given its protein stability index, does `VILLFDEQGLSALHLAAQGRHAQT` occupy?
Output: low value

Input: Which bin, given its protein stability index, does `VIDLFDEQGLIALHLAAQGRHAQT` occupy?
Output: medium value
